study.system: Dipeptidyl peptidase 9 (Homo sapiens)
Sequence (Q86TI2 whole entry): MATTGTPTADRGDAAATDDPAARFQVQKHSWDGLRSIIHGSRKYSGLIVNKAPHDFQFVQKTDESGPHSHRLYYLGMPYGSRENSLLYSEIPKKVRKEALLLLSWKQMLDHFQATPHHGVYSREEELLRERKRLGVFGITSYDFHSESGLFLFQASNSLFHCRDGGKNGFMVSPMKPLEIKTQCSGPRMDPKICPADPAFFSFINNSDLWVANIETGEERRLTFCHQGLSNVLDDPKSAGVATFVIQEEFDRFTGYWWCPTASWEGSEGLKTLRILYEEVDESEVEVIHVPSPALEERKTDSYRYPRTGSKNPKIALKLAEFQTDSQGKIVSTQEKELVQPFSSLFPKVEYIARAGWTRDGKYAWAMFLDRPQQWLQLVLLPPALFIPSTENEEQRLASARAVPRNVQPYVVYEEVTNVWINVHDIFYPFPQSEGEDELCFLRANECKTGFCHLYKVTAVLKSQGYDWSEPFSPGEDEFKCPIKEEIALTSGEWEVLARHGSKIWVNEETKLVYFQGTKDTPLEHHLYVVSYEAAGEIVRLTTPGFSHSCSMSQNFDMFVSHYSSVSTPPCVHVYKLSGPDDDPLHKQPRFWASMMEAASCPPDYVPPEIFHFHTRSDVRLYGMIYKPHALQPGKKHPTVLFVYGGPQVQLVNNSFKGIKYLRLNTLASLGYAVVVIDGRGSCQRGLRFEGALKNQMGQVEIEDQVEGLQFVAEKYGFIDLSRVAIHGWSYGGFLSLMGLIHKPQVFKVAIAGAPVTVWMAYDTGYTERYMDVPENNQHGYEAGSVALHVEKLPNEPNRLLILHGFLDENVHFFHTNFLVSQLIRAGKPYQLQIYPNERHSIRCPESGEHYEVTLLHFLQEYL
observed.property: IC50

Record `CC(C)[C@H](Oc1ccc(CNC(=O)[C@@H]2CCCN2C(=O)C[C@H](N)Cc2cc(F)ccc2F)cc1)C(=O)O` / Dipeptidyl peptidase 9 (Homo sapiens), IC50 recorded as > 86 µM

----------
assay.method.text: Cmax in Wistar rat at 1 mg/kg after 10 mins
Format: ADME, organism-based
Design: dose 1 mg/kg
condition.info: in vivo
observed.property: Cmax (ng/mL)
Response body: numeric value in ng/mL, unit text excluded.

Summary for this compound, `CC[C@H](C)[C@H](N)C(=O)N1C[C@@H](F)C[C@H]1C#N` : Cmax is 372
